From: patent US10047074B2

# target.desc: IDO (SKOV3) (Homo sapiens)
# Construct: IDO expression was induced in the SKOV3 cells by the addition of 500 ng/ml IFN-γ; endogenous in cells; host or cells: SKOV3 (human ovarian adenocarcinoma), IFN-γ induced
# Sequence (P14902 whole entry): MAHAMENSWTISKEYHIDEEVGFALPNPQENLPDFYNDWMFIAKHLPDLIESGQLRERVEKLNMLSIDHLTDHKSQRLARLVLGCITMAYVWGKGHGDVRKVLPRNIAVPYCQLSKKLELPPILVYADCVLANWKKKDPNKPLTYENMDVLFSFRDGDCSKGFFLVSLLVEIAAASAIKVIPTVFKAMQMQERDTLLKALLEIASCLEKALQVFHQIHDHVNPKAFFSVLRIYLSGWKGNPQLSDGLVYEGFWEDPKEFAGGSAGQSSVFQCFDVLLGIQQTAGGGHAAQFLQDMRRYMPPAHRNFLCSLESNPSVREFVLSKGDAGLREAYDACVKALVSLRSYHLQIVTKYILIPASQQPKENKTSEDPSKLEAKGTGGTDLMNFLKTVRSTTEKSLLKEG
# assay.text: SKOV3 Kynurenine cell based assay
# experimental.conditions: SKOV3 human ovarian adenocarcinoma cells, IDO induced by IFN-γ; kynurenine production, 48 hours

- compound: "CN(C)C(=O)CCC(=O)Nc1oncc1-c1ccccc1 [Compound 58]"
  SKOV3 Kynurenine cell based assay pIC50: "+ (+ = pIC50 4.00-4.49)"
- compound: "Nc1oncc1-c1ccccc1CCO [Compound 78]"
  SKOV3 Kynurenine cell based assay pIC50: "+ (+ = pIC50 4.00-4.49)"
- compound: "O=C(Nc1oncc1-c1ccccc1)C(O)c1ccccc1 (stereo not drawn) [Compound 76]"
  SKOV3 Kynurenine cell based assay pIC50: "+ (+ = pIC50 4.00-4.49)"
